target.or.test.system: WT human SLACK (Homo sapiens)
Construct: host or cells: CHO-K1
Sequence (Q5JUK3 1-1235 isoform Q5JUK3-3): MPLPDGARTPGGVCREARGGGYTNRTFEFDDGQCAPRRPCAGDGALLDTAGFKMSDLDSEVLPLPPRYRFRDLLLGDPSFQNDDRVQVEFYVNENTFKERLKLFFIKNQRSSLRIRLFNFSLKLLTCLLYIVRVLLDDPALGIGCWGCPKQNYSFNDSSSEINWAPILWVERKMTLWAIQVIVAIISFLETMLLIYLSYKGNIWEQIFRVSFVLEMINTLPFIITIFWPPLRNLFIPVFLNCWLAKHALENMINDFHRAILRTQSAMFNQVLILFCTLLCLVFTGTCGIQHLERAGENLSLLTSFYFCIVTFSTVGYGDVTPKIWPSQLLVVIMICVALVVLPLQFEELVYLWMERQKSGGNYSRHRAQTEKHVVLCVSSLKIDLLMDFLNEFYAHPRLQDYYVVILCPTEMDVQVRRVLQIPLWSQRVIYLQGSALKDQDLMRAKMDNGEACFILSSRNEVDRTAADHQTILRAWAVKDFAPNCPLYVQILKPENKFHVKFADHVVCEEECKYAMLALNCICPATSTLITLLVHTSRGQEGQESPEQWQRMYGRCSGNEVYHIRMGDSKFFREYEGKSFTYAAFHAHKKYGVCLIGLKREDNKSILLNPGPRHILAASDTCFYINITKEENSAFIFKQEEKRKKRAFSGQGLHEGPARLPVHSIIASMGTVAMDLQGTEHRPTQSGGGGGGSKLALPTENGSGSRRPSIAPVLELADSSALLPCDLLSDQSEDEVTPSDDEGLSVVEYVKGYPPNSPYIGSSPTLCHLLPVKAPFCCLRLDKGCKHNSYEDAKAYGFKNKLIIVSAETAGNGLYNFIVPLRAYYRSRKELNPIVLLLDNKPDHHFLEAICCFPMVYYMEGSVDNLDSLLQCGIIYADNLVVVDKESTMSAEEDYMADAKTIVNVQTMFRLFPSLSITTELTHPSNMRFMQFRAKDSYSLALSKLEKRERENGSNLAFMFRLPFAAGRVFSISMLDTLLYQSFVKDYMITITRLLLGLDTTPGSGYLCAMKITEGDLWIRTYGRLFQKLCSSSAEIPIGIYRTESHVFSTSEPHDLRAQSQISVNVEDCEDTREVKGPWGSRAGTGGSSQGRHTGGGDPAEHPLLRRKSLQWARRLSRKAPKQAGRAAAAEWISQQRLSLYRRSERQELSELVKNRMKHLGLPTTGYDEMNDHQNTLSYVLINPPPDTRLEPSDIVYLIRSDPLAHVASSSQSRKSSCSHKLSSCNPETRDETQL
assay.remarks: Whole-cell automated patch clamp (APC) in CHO-K1 cells stably expressing WT human SLACK
Type: cell-based
condition: ratio of WT SLACK APC IC50 to hit 10
measured.endpoint: Fold less potent than hit 10 (SLACK inhibition)

- structure.string: "CC(C)(Oc1ccc(Cl)cc1)C(=O)Nc1ccc(Oc2ccccc2F)nc1"
  assay.result: "~2 fold"
- structure.string: "Cc1ccccc1OC(C)(C)C(=O)Nc1cnc(Oc2ccccc2F)nc1"
  assay.result: "approximately 2 fold"
- structure.string: "CC(C)(Oc1ccc(C(F)(F)F)cc1)C(=O)Nc1cnc(Oc2ccccc2F)nc1"
  assay.result: "approximately 2 fold"
- structure.string: "CC(C)(Nc1ccc(Cl)cc1)C(=O)Nc1cnc(Oc2ccccc2F)nc1"
  assay.result: "~2 fold"
- structure.string: "CC(C)(Oc1ccc(Cl)cc1)C(=O)Nc1ccc(Oc2ccccc2F)cc1"
  assay.result: "3.5 fold"
- structure.string: "CC(C)(Cc1ccc(Cl)cc1)C(=O)Nc1cnc(Oc2ccccc2F)nc1"
  assay.result: "5 fold"

Data origin, for the record: paper PMC11643494
